- TEST_PROTOCOL: in vitro
- MEASUREMENT_CONDITIONS: dog, MDCK cells
I'd appreciate it if you could supply selectivity ratio values for the items below.
Just the number, please, no unit attached.

Form field selectivity ratio, entry COC(=O)[C@@H]1Cc2cc(O)c(O)cc2[C@H](Cc2ccc(O)c(O)c2)N1C(=O)C1CCCCC1 : 3.4

The reported selectivity ratio of the compound C=CC(=O)N1[C@H](C(=O)OC)Cc2cc(O)c(O)cc2[C@@H]1Cc1ccc(O)c(O)c1 was 8.9

Input COC(=O)[C@@H]1Cc2cc(O)c(O)cc2[C@H](Cc2ccc(O)c(O)c2)N1C(=O)c1ccccc1Cl . Output selectivity ratio: 49.3

For this compound ( COC(=O)CNC(=O)[C@@H]1Cc2cc(O)c(O)cc2[C@H](Cc2ccc(O)c(O)c2)N1C(=O)c1ccccc1Cl ), measured selectivity ratio is 36.8

// recorded selectivity ratio for COC(=O)[C@@H]1Cc2cc(O)c(O)cc2[C@H](Cc2ccc(O)c(O)c2)N1C(=O)c1ccccc1F : 29.7

* * *

- TEST_PROTOCOL: Clearance in BALB/c nude mouse at 2 mg/kg, iv measured after 24 hrs by LC-MS/MS analysis
- Type: ADME, organism-based
- MEASUREMENT_CONDITIONS: in vivo
MEASUREMENT_KIND: clearance (mL/min/kg)
Write the value in mL/min/kg as a bare number.

The recorded clearance for entry CCCOC(=O)[C@@H]1Cc2cc(O)c(O)cc2[C@H](Cc2ccc(O)c(O)c2)N1C(=O)c1ccccc1Cl equals 53.8

* * *

- TEST_PROTOCOL: Cytotoxicity against MDCK cells incubated for 48 hrs by MTT assay
- Type: toxicity, cell-based, Canis lupus familiaris
- MEASUREMENT_CONDITIONS: dog
For each of the molecules below, state its CC50 at 48 h.

Recorded result, CCCOC(=O)[C@@H]1Cc2cc(O)c(O)cc2[C@H](Cc2ccc(O)c(O)c2)N1C(=O)c1ccccc1Cl , CC50 at 48 h: 99.5 µM

Per the record, C=CC(=O)N1[C@H](C(=O)OC)Cc2cc(O)c(O)cc2[C@@H]1Cc1ccc(O)c(O)c1 has CC50 at 48 h of 47.5 µM

According to the records, this molecule CN1CCc2cc(O)c(O)cc2C1Cc1ccc(O)c(O)c1 (racemic) displays CC50 at 48 h of > 200 µM

The reported value for COC(=O)[C@@H]1Cc2cc(O)c(O)cc2[C@H](Cc2ccc(O)c(O)c2)N1C(=O)c1ccccc1Cl in terms of CC50 at 48 h is 89.8 µM

# molecule CCOC(=O)[C@@H]1Cc2cc(O)c(O)cc2[C@H](Cc2ccc(O)c(O)c2)N1C(=O)c1ccccc1Cl ; its CC50 at 48 h = 98.5 µM

Quick note, CC50 at 48 h for COC(=O)[C@@H]1Cc2cc(O)c(O)cc2[C@H](Cc2ccc(O)c(O)c2)N1C(=O)c1ccc(F)cc1 landed at > 101 µM

Entry O=C(O[C@@H]1Cc2c(O)cc(O)cc2O[C@@H]1c1cc(O)c(O)c(O)c1)c1cc(O)c(O)c(O)c1 [EPIGALOCATECHIN GALLATE] ; CC50 at 48 h = > 100 µM

Reported CC50 at 48 h for COC(=O)COC(=O)[C@@H]1Cc2cc(O)c(O)cc2[C@H](Cc2ccc(O)c(O)c2)N1C(=O)c1ccccc1Cl was 163 µM

For reference, reported CC50 at 48 h for COC(=O)[C@@H]1Cc2cc(O)c(O)cc2[C@H](Cc2ccc(O)c(O)c2)N1C(=O)c1ccccc1 stands at 157 µM

Measured CC50 at 48 h, COC(=O)[C@@H]1Cc2cc(O)c(O)cc2[C@H](Cc2ccc(O)c(O)c2)N1C(=O)c1ccc2ccccc2c1 : 45.2 µM

* * *

- TEST_PROTOCOL: in vitro
- MEASUREMENT_CONDITIONS: dog, MDCK cells
MEASUREMENT_KIND: selectivity ratio
Kindly provide the number alone.

O=C(Nc1ccncc1)[C@@H]1Cc2cc(O)c(O)cc2[C@H](Cc2ccc(O)c(O)c2)N1C(=O)c1ccccc1Cl has a reported selectivity ratio of 101

Quick note, selectivity ratio for O=C(Nc1ccccc1)[C@@H]1Cc2cc(O)c(O)cc2[C@H](Cc2ccc(O)c(O)c2)N1C(=O)c1ccccc1Cl landed at 10.8

// COC(=O)[C@@H]1Cc2cc(O)c(O)cc2[C@H](Cc2ccc(O)c(O)c2)N1C(=O)c1ccc2ccccc2c1 : selectivity ratio value = 15.6

Recorded result, CCOC(=O)[C@@H]1Cc2cc(O)c(O)cc2[C@H](Cc2ccc(O)c(O)c2)N1C(=O)c1ccccc1Cl , selectivity ratio: 30.7

Entry COC(=O)COC(=O)[C@@H]1Cc2cc(O)c(O)cc2[C@H](Cc2ccc(O)c(O)c2)N1C(=O)c1ccccc1Cl , selectivity ratio reported as 67.1

// field: selectivity ratio; key: COC(=O)[C@@H]1Cc2cc(O)c(O)cc2[C@H](Cc2ccc(O)c(O)c2)N1C(=O)c1cccc(F)c1 ; value = 25.8

The reported selectivity ratio of the compound CCCCCCC(=O)N1[C@H](C(=O)OC)Cc2cc(O)c(O)cc2[C@@H]1Cc1ccc(O)c(O)c1 was 5.1

So for CN(C)C(=O)[C@@H]1Cc2cc(O)c(O)cc2[C@H](Cc2ccc(O)c(O)c2)N1C(=O)c1ccccc1Cl , the logged selectivity ratio turned out to be 10.8

Input O=C(Oc1ccccc1)[C@@H]1Cc2cc(O)c(O)cc2[C@H](Cc2ccc(O)c(O)c2)N1C(=O)c1ccccc1Cl . Output selectivity ratio: 52.1

Looking up COC(=O)[C@@H]1Cc2cc(O)c(O)cc2[C@H](Cc2ccc(O)c(O)c2)N1C(=O)c1ccc(Cl)cc1 , I found its selectivity ratio recorded as 34.5

* * *

- TEST_PROTOCOL: Cytotoxicity against MDCK cells incubated for 48 hrs by MTT assay
- Format: toxicity, cell-based, Canis lupus familiaris
- MEASUREMENT_CONDITIONS: dog
MEASUREMENT_KIND: CC50 at 48 h (µM)
Write the value in µM as a bare number.

The reported value for O=C(Oc1ccccc1)[C@@H]1Cc2cc(O)c(O)cc2[C@H](Cc2ccc(O)c(O)c2)N1C(=O)c1ccccc1Cl in terms of CC50 at 48 h is 70.3

// recorded CC50 at 48 h for COC(=O)[C@@H]1Cc2cc(O)c(O)cc2[C@H](Cc2ccc(O)c(O)c2)N1C(=O)c1cccc(F)c1 : 73.7

// COC(=O)CNC(=O)[C@@H]1Cc2cc(O)c(O)cc2[C@H](Cc2ccc(O)c(O)c2)N1C(=O)c1ccccc1Cl : CC50 at 48 h value = 143

Form: compound = CCCCCCC(=O)N1[C@H](C(=O)OC)Cc2cc(O)c(O)cc2[C@@H]1Cc1ccc(O)c(O)c1 ; CC50 at 48 h = 84.3

Record summary for O=C(Nc1ccncc1)[C@@H]1Cc2cc(O)c(O)cc2[C@H](Cc2ccc(O)c(O)c2)N1C(=O)c1ccccc1Cl : reported CC50 at 48 h = 203

* * *

- TEST_PROTOCOL: Metabolic stability in mouse plasma assessed as compound remaining measured after 60 mins by LC-MS/MS analysis
- Type: ADME, cell-free
- MEASUREMENT_CONDITIONS: read-out: Stability
MEASUREMENT_KIND: remaining at 1 h (%)
Record the value in %, omitting the unit from your answer.

For reference, reported remaining at 1 h for CC(C)[N+](C)(CCOC(=O)C1c2ccccc2Oc2ccccc21)C(C)C [PROPANTHELINE BROMIDE] stands at 18.2

// sample CCCOC(=O)[C@@H]1Cc2cc(O)c(O)cc2[C@H](Cc2ccc(O)c(O)c2)N1C(=O)c1ccccc1Cl , its remaining at 1 h was 95.6

* * *

- Tested on: Influenza A virus
- TEST_PROTOCOL: Antiviral activity against influenza A virus Flu (B/Lee/1940) infected in MDCK cells assessed as inhibition of cytopathic effect incubated for 48 hrs by MTT assay
- Type: functional, organism-based
MEASUREMENT_KIND: EC50 (nM)
Give just the numeric value; nM need not be written.

Consider CCC(CC)[C@H](NC(C)=O)[C@@H]1[C@H](O)[C@@H](C(=O)O)C[C@H]1NC(=N)N [PERAMIVIR ANHYDROUS] . Its measured EC50 is 1660

Kindly note the recorded EC50 for COC(=O)[C@@H]1Cc2cc(O)c(O)cc2[C@H](Cc2ccc(O)c(O)c2)N1C(=O)c1ccccc1Cl , which is 860

compound CCCOC(=O)[C@@H]1Cc2cc(O)c(O)cc2[C@H](Cc2ccc(O)c(O)c2)N1C(=O)c1ccccc1Cl , EC50 observed: 430

Measured EC50, O=C(Nc1ccncc1)[C@@H]1Cc2cc(O)c(O)cc2[C@H](Cc2ccc(O)c(O)c2)N1C(=O)c1ccccc1Cl : 820
